Test system: ATP;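 note: ATP exposure 15 min at 22 °C before imaging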
Assay overview: switch fluorescence ratio, 500 uM ATP over buffer (Cy3 cluster intensity, sum of 5 cycles each) (fold (ratio)); higher = stronger signal-on switching upon ATP binding; sequences stand for … in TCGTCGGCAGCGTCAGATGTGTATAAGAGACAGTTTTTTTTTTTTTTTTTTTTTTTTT…TC
Study conditions: aptamer strand: ATP DNA aptamer (quencher-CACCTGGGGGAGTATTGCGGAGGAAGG + anchor), 100 nM annealed; ATP concentration: 500 uM
Assign switch fluorescence ratio to each entry below.

Asked: Given the sequence TAGGCTAGGG , write its reported switch fluorescence ratio.
Given back: 0.971

Asked: Read the entry TTGAAGGATG and write its reported switch fluorescence ratio.
Given back: 0.997

Asked: State its switch fluorescence ratio for this sequence: CCTTAGTTTT
Given back: 0.983

Asked: Specify measured switch fluorescence ratio for GGGGGCATCT .
Given back: 1

Asked: Read the entry TCTTGTATTC and write its reported switch fluorescence ratio.
Given back: 0.994

Asked: Quickly give me recorded switch fluorescence ratio for CCATGTGTGC
Given back: 1.02

Asked: State its switch fluorescence ratio for this sequence: TATAAGACAA
Given back: 1.02

Asked: Check the records and state switch fluorescence ratio for GAGGGGTGAG
Given back: 1.01

List reported switch fluorescence ratio for each of these sequences:
1. CGAGTTAATT
2. TCACACGTCG
3. GTTTCTTTGT

Given back:
[1.01, 1.02, 0.986]

Provide each entry's switch fluorescence ratio from the list below.
1. CCATTTGTTG
2. GGGGAGGGGC
3. CGTCATTTAT
4. GGGGTTGCGT

Given back:
[0.971, 1.01, 1, 0.996]

---

For each entry below, report its switch fluorescence ratio value.
Tested on: ATP;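 note: ATP exposure 15 min at 22 °C before imaging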
Assay overview: switch fluorescence ratio, 500 uM ATP over buffer (Cy3 cluster intensity, sum of 5 cycles each) (fold (ratio)); higher = stronger signal-on switching upon ATP binding; sequences stand for … in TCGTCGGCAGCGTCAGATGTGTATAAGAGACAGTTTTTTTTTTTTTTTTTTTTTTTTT…TC
Study conditions: aptamer strand: ATP DNA aptamer (quencher-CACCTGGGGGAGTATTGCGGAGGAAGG + anchor), 100 nM annealed; ATP concentration: 500 uM
One number for each entry.

Worked set:
Asked: Return value of switch fluorescence ratio for input GACTTTGGCA , no commentary.
Given back: 0.983

Asked: Entry CACCGGTGTT needs its switch fluorescence ratio filled in; supply it.
Given back: 1.02

Batch: switch fluorescence ratio for all items listed.
1. TCGAGGCTGT
2. TACAATGTTT
3. TTCCAGCTTT
4. AGGGGGCTTT
5. ACAAGTATCA
6. CATGGGGGTA
7. ACGGAGAGGC
8. GCTCCATGGG

Given back:
1. 1.18
2. 1.02
3. 1.02
4. 0.985
5. 0.985
6. 0.982
7. 1.14
8. 1.02

---

Provide the recorded switch fluorescence ratio for the entries that follow.
System: ATP;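 note: ATP exposure 15 min at 22 °C before imaging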
Assay overview: switch fluorescence ratio, 500 uM ATP over buffer (Cy3 cluster intensity, sum of 5 cycles each) (fold (ratio)); higher = stronger signal-on switching upon ATP binding; sequences stand for … in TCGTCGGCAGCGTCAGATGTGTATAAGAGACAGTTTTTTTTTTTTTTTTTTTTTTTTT…TC
Study conditions: aptamer strand: ATP DNA aptamer (quencher-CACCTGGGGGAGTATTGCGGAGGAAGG + anchor), 100 nM annealed; ATP concentration: 500 uM
Numbers only.

The cases that follow already have their switch fluorescence ratio on record.
Asked: Output reported switch fluorescence ratio of the sequence AGGGACAAGG on ATP.
Given back: 1.01

Asked: Under ATP: report switch fluorescence ratio of GAGGTCGCGC .
Given back: 1.01

Asked: # assay system ATP: give switch fluorescence ratio of TTCAACATTT;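 note: ATP exposure 15 min at 22 °C before imaging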
Given back: 1.04

Asked: Check ATP data and give switch fluorescence ratio for GGGAGCCCCA .
Given back: 1.04

For each of the sequences below, note its switch fluorescence ratio.
1. CAGGGGGTTA
2. GATAGTGTAG
3. TAGGGCAGGT
4. ATTTTTTAGT
5. TTGGTTTAGT

Given back:
1. 1.02
2. 1.03
3. 1.01
4. 0.983
5. 1.01
